measured-target: SARS-COV-2 RBD extracellular domain expressed with a C-terminal mouse IgG2a Fc (SARS-CoV-2)
method-notes: Biacore SPR, mAb captured on anti-hFc, 25 C
measured-quantity: log10 t½ (log10 of the value in h)
Please interpret these as log10 of t½ where t½ is in h.

mAb14289 (antibody, V domains shown) VH: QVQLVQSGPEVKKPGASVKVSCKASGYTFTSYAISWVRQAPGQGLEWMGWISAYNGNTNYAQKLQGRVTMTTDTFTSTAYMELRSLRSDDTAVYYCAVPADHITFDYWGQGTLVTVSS VL: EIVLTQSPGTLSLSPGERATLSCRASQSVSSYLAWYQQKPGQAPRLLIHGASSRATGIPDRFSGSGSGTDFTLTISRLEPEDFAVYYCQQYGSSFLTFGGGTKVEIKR    0.33
mAb14255 (antibody, V domains shown) VH: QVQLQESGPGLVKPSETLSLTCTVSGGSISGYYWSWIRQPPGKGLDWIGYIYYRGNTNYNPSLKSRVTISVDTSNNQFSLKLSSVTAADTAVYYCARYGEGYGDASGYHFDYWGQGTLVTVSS VL: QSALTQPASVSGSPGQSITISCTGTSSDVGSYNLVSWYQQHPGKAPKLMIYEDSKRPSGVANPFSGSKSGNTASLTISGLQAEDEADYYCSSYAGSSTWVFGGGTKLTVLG    0.08
mAb14282 (antibody, V domains shown) VH: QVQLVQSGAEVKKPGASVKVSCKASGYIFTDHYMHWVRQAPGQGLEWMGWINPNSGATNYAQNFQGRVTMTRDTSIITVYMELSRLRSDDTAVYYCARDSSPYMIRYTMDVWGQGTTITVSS VL: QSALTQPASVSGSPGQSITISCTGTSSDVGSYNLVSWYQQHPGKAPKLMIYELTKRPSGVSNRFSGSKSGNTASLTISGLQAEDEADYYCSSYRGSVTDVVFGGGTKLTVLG    -0.32
mAb14258 (antibody, V domains shown) VH: QLQLQESGPGLVKPSETLSLICTGSGDSISSSHYYWGWIRQPPGKGLEWIGSTYFSGSTYYNPSLKSRVSISVDTSKNQVSLKLISVTAADTAVYYCAREMGATLGDYWGPGTLVTVSS VL: QSVLTQPPSASGTPGQRVTISCSGSSSNIGNNYVYWYQQFPGTTPRLLIYRNNERPSGVPDRFSGSKSGTSASLVISGLRSEDEADYYCAAWDDSLSAHYVFGTGTKVTVLG    0.25
mAb14312 (antibody, V domains shown) VH: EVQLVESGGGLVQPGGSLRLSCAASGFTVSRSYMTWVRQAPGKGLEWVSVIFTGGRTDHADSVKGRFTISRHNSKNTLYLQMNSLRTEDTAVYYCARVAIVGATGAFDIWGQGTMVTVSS VL: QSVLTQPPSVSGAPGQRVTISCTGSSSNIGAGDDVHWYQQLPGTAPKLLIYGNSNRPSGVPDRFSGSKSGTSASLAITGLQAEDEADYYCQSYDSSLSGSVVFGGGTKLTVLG    0.54
mAb14230 (antibody, V domains shown) VH: EVQLVESGGGLIQPGRSLRLSCAASGFTFDDYAMHWVRQAPGKGLEWVSGISWNSVSIDYADSVKGRFTISRDNAKNSLYLQMTSLTVEDTALYYCAKAFGYETLTGSDYFAYWGPGTLVTVSS VL: EIVLTQSPGTLSLSPGERATLSCRASQTVISTYLAWYQQKPGQSPRLLIYGASSRATGIPDRFSGSGSGTDFTLTISRLEPEDFAVYYCQQYGSSPQLTFGGGTKVEIKR    -0.17
mAb14285 (antibody, V domains shown) VH: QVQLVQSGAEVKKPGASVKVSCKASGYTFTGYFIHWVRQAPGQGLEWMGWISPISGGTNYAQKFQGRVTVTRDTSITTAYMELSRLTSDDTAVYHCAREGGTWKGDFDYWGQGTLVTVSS VL: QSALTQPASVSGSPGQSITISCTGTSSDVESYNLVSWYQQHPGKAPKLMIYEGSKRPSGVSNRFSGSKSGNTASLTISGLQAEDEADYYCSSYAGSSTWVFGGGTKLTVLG    -0.42
mAb15163 (antibody, V domains shown) VH: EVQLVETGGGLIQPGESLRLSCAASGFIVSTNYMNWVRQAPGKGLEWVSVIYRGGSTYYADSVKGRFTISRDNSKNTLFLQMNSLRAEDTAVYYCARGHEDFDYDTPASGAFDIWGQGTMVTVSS VL: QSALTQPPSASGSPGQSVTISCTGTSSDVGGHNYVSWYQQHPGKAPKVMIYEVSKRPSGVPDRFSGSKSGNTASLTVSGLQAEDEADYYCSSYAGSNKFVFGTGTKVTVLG    1.28
mAb14232 (antibody, V domains shown) VH: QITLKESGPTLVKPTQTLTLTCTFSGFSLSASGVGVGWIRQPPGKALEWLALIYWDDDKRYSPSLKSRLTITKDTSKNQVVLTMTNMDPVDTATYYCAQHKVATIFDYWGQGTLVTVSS VL: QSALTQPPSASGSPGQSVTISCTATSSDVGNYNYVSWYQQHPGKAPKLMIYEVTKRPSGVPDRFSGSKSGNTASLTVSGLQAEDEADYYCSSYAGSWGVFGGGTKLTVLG    -0.95

Query log10 t½ for mAb14294 (antibody, V domains shown) VH: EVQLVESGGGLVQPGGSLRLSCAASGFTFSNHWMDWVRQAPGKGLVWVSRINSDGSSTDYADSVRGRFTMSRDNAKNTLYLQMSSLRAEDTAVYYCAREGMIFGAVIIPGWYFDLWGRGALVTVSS VL: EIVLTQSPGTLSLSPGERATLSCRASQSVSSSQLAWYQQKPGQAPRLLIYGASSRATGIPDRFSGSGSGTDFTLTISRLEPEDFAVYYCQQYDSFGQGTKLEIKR
0.86
